Origin of values: ChEMBL document CHEMBL3046675

molecular target: Octopamine receptor (Periplaneta americana) (UniProt Q7YWB7); assay: Agonist activity at Periplaneta americana (American cockroach) thoracic nerve cord octopaminergic receptor assessed as induction of adenylate cyclase-mediated cAMP production per mg protein at 100 uM by radioimmunoassay relative to octopamine
Sequence (Q7YWB7 as listed by the source): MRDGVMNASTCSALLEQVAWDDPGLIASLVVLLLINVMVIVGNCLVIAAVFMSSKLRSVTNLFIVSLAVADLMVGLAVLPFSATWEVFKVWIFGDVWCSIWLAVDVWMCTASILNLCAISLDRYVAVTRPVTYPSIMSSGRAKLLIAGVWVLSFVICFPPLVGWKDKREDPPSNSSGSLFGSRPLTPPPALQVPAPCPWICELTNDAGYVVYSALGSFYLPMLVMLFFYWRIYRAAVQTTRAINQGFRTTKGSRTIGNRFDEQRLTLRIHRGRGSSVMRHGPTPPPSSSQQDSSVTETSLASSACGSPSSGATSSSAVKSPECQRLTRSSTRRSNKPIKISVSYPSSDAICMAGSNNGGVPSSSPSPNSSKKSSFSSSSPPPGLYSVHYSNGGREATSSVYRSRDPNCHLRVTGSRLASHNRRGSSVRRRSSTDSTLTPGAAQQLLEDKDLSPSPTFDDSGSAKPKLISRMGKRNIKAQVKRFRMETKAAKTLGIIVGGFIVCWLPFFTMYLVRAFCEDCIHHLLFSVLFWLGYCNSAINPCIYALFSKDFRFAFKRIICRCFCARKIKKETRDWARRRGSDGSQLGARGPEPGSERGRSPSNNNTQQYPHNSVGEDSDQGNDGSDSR
Measure Name: max activation (%)
One number for each entry, in %.

Look over these answered cases.
[
  {
    "Chemical Structure": "COc1cc(/N=C2/NCCO2)cc(OC)c1OC",
    "Measure Name": "max activation",
    "Reported": -9.4
  },
  {
    "Chemical Structure": "FC(F)(F)c1ccccc1CNC1=NCCO1",
    "Measure Name": "max activation",
    "Reported": 5.1
  },
  {
    "Chemical Structure": "Clc1cccc(/N=C2/NCCO2)c1Cl",
    "Measure Name": "max activation",
    "Reported": 2
  },
  {
    "Chemical Structure": "CCc1cccc(CC)c1/N=C1/NCCO1",
    "Measure Name": "max activation",
    "Reported": 49
  },
  {
    "Chemical Structure": "Clc1ccccc1CNC1=NCCO1",
    "Measure Name": "max activation",
    "Reported": 17.4
  }
]

Provide the reported max activation of each entry below, same order.
1. COc1ccc(CNC2=NCCO2)c(OC)c1
2. Fc1ccccc1CNC1=NCCO1
3. Fc1ccc(CNC2=NCCO2)cc1

Reply |
1: 9.8; 2: 14.2; 3: 11.2

====

target: Octopamine receptor (Periplaneta americana); assay: Agonist activity at Periplaneta americana (American cockroach) thoracic nerve cord octopaminergic receptor assessed as induction of adenylate cyclase-mediated cAMP production per mg protein at 100 uM by radioimmunoassay
For each record, check the reported Activity: if it is below 200 pmol/min write y, else write n.

Record excerpt, results attached:
[
  {
    "Molecule": "FC(F)(F)c1ccc(/N=C2/NCCO2)cc1",
    "Discrete Label": "y"
  },
  {
    "Molecule": "COc1ccccc1CNC1=NCCO1",
    "Discrete Label": "y"
  },
  {
    "Molecule": "Cc1cccc(CNC2=NCCO2)c1",
    "Discrete Label": "y"
  },
  {
    "Molecule": "Fc1ccc(F)c(CNC2=NCCO2)c1",
    "Discrete Label": "n"
  }
]

Ask | Input `COc1ccc(CNC2=NCCO2)c(OC)c1` ; condition: Activity strictly below 200 pmol/min. Does it hold?
Reply | y

Ask | Input `Clc1cccc(/N=C2/NCCO2)c1` ; condition: Activity strictly below 200 pmol/min. Does it hold?
Reply | y

Ask | Input `Fc1ccc(CNC2=NCCO2)cc1` ; condition: Activity strictly below 200 pmol/min. Does it hold?
Reply | y

Ask | Input `Fc1ccccc1CNC1=NCCO1` ; condition: Activity strictly below 200 pmol/min. Does it hold?
Reply | y

Ask | Input `COc1cccc(CNC2=NCCO2)c1` ; condition: Activity strictly below 200 pmol/min. Does it hold?
Reply | y

Ask | Input NCC(O)c1ccc(O)cc1 (stereo unspecified) ; condition: Activity strictly below 200 pmol/min. Does it hold?
Reply | n

Ask | Input `Clc1ccc(CNC2=NCCO2)cc1Cl` ; condition: Activity strictly below 200 pmol/min. Does it hold?
Reply | y

Ask | Input `FC(F)(F)c1ccc(CNC2=NCCO2)cc1` ; condition: Activity strictly below 200 pmol/min. Does it hold?
Reply | y

Ask | Input `COc1cccc(CNC2=NCCO2)c1OC` ; condition: Activity strictly below 200 pmol/min. Does it hold?
Reply | y

Ask | Input `Fc1ccc(F)c(/N=C2/NCCO2)c1` ; condition: Activity strictly below 200 pmol/min. Does it hold?
Reply | y

Ask | Input `CCc1ccc(/N=C2/NCCO2)cc1` ; condition: Activity strictly below 200 pmol/min. Does it hold?
Reply | y

Ask | Input `CCc1cccc(CC)c1/N=C1/NCCO1` ; condition: Activity strictly below 200 pmol/min. Does it hold?
Reply | n

Ask | Input `Fc1cc(F)c(/N=C2/NCCO2)c(F)c1` ; condition: Activity strictly below 200 pmol/min. Does it hold?
Reply | y

Ask | Input `Clc1ccc(CNC2=NCCO2)cc1` ; condition: Activity strictly below 200 pmol/min. Does it hold?
Reply | n

Ask | Input `Cc1ccc(CNC2=NCCO2)cc1` ; condition: Activity strictly below 200 pmol/min. Does it hold?
Reply | n

Ask | Input `FC(F)(F)c1ccccc1CNC1=NCCO1` ; condition: Activity strictly below 200 pmol/min. Does it hold?
Reply | y

Ask | Input `Brc1cc(Br)c(/N=C2/NCCO2)c(Br)c1` ; condition: Activity strictly below 200 pmol/min. Does it hold?
Reply | y

Ask | Input `Clc1ccc(CNC2=NCCO2)c(Cl)c1` ; condition: Activity strictly below 200 pmol/min. Does it hold?
Reply | y

Ask | Input `Clc1cccc(/N=C2/NCCO2)c1Cl` ; condition: Activity strictly below 200 pmol/min. Does it hold?
Reply | y
